- ASSAY_TARGET: T1, GLP-1R M204A (Homo sapiens)
- T1 chain: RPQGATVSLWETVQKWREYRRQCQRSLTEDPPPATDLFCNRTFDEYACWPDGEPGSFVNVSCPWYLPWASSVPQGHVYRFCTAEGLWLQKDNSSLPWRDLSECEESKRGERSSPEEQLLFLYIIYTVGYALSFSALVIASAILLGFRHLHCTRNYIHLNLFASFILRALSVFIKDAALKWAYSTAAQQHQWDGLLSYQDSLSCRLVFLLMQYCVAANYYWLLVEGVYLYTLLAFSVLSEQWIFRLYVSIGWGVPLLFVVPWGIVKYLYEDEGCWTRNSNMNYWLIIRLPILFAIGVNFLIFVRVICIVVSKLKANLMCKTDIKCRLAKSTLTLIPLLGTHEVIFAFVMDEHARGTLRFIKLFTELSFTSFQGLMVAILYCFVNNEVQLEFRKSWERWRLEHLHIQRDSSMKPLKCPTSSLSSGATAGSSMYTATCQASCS
No end group written: not given here.
METRIC_NAME: pIC50
To interpret pIC50, take it as minus log10 of a concentration measured in moles per litre.

| BINDER | ENDPOINT_VALUE |
| --- | --- |
| HSQGTFTSDYSKYLDSRRAQDFVQWLMNTKRNRNNIA [oxyntomodulin] | 6.13 |

Asked: Report pIC50 for HAEGTFTSDVSSYLEGQAAKEFIAWLVKGR (not fully specified (C-terminus)) [glucagon-like peptide-1]
Given back: 7.10
